Test system: T. brucei brucei BSF
Assay: T. brucei BSF viability, resazurin reduction
Assay type: cell-based, Trypanosoma brucei brucei
Conditions: Trypanosoma brucei, 2.5 µM; read-out: viability, T.brucei (2.5 µM)
Response field label takes label 1 when viability at 2.5 µM is strictly below 70% and label 0 in all other cases.

# count of solved cases: 10
compound	target-under-test	label-value
CC(=O)c1ccc(NC[C@H](O)[C@@H](N)Cc2ccccc2)cc1	T. brucei brucei BSF	label 0
COc1ccc(NC[C@H](O)[C@@H](N)Cc2ccccc2)cc1	T. brucei brucei BSF	label 0
CC(C)(C)OC(=O)NC(Cc1ccccc1)C(O)CNc1ccc(OC(F)(F)F)cc1 (stereo not shown)	T. brucei brucei BSF	label 1
CC(C)(C)OC(=O)NC(Cc1ccccc1)C(O)CNc1cccc(C(F)(F)F)c1 (stereo not shown)	T. brucei brucei BSF	label 0
Cc1ccc(NC[C@H](O)[C@@H](N)Cc2ccccc2)cc1	T. brucei brucei BSF	label 0
N[C@@H](Cc1ccccc1)[C@@H](O)CNc1ccc(F)cc1F	T. brucei brucei BSF	label 1
CC(C)(C)c1ccc(NC[C@H](O)[C@@H](N)Cc2ccccc2)cc1	T. brucei brucei BSF	label 0
N[C@@H](Cc1ccccc1)[C@@H](O)CNc1ccc(OC(F)(F)F)cc1	T. brucei brucei BSF	label 1
N[C@@H](Cc1ccccc1)[C@@H](O)CNc1cccc(C(F)(F)F)c1	T. brucei brucei BSF	label 1
O=C(CCc1ccc(Br)cc1)NC(Cc1ccccc1)C(O)CN1CCN(Cc2ccccc2)CC1 (stereo not shown)	T. brucei brucei BSF	label 0

Here's an entry: N[C@@H](Cc1ccccc1)[C@@H](O)CNc1ccc(C(F)(F)F)cc1 . Is its viability at 2.5 µM below 70%?
label 1

Given the entry O=C(Cc1ccc2ccccc2c1)NC(Cc1ccccc1)C(O)CN1CCN(Cc2ccccc2)CC1 (stereo not shown) , would its reported viability at 2.5 µM be below 70%?
label 0

Given the entry O=C(Cc1cccc(C(F)(F)F)c1)NC(Cc1ccccc1)C(O)CN1CCN(Cc2ccccc2)CC1 (stereo not shown) , would its reported viability at 2.5 µM be below 70%?
label 0

These entries and their values trace back to paper PMC10994559.
